- MEASUREMENT SETUP: buffer, pH 7.4, 4 h
- Description: Chemical stability of the compound in phosphate buffer assessed as nitrite release after 4 hrs at pH 7.4 by Griess method
REPORTED PROPERTY: Drug metabolism (µg/mL)
Reply with just the number (in µg/mL).

QUERY: Dear colleague, I am looking for the recorded Drug metabolism of the following compound: CC(C(=O)NCCCCCCNc1c2c(nc3ccccc13)CCCC2)c1ccc(-c2ccc(OCCCCCCO[N+](=O)[O-])cc2)c(F)c1 (centres undefined)
RESULT: 0.283

QUERY: Would you kindly repeat that for CC(C(=O)NCCCCCCNc1c2c(nc3ccccc13)CCCC2)c1ccc(-c2ccc(OCCCO[N+](=O)[O-])cc2)c(F)c1 (centres undefined) ?
RESULT: 0.353

QUERY: Entry to check: CC(C(=O)NCCCCCCCCNc1c2c(nc3ccccc13)CCCC2)c1ccc(-c2ccc(OCCCCCCO[N+](=O)[O-])cc2)c(F)c1 (centres undefined)
RESULT: 0.34

QUERY: Here is the next compound: O=[N+]([O-])O[C@@H]1CO[C@H]2[C@@H]1OC[C@@H]2O [ISOSORBIDE MONONITRATE]
RESULT: 0.412

QUERY: Check CC(C(=O)NCCCCCCCCNc1c2c(nc3ccccc13)CCCC2)c1ccc(-c2ccc(OCCCO[N+](=O)[O-])cc2)c(F)c1 (centres undefined) too.
RESULT: 0.353

QUERY: # iterate: CC(C(=O)NCCCCCCCCNc1c2c(nc3ccccc13)CCCC2)c1ccc(-c2ccc(OCCCCO[N+](=O)[O-])cc2)c(F)c1 (centres undefined)
RESULT: 0.36

QUERY: # iterate: CC(C(=O)NCCCCCCNc1c2c(nc3ccccc13)CCCC2)c1ccc(-c2ccc(OCCCCO[N+](=O)[O-])cc2)c(F)c1 (centres undefined)
RESULT: 0.36

QUERY: Repeat for the following compound: CC(C(=O)NCCCCCCCCNc1c2c(nc3ccccc13)CCCC2)c1ccc(-c2ccc(OCCO[N+](=O)[O-])cc2)c(F)c1 (centres undefined)
RESULT: 0.565

QUERY: Thanks! And CC(C(=O)NCCCCCCNc1c2c(nc3ccccc13)CCCC2)c1ccc(-c2ccc(OCCO[N+](=O)[O-])cc2)c(F)c1 (centres undefined) ?
RESULT: 0.348

###

Here we list compounds with their recorded pIC50 when tested on Cholinesterase (Equus caballus, UniProt P81908).
Sequence (P81908 whole entry): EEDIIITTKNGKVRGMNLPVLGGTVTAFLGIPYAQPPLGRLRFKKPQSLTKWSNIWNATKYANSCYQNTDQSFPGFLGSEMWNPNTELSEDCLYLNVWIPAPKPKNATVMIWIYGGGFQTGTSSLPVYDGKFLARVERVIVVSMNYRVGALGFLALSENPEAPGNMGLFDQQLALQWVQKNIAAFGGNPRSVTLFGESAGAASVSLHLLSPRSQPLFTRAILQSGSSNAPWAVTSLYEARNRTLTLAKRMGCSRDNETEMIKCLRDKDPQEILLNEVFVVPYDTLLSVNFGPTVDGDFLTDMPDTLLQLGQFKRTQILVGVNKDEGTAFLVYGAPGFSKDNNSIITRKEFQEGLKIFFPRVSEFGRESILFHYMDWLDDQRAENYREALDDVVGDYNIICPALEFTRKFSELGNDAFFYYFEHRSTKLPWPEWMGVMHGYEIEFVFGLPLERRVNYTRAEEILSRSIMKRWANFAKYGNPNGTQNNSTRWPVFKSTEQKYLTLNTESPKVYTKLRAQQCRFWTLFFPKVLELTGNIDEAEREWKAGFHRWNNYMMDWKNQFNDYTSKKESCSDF
pIC50 field: float, defined as -log10 of concentration (mol/L).

QUERY: I have this compound here, CC(C(=O)NCCCCCCNc1c2c(nc3ccccc13)CCCC2)c1ccc(-c2ccc(OCCO[N+](=O)[O-])cc2)c(F)c1 (stereo not drawn) , and I need its recorded pIC50.
RESULT: 8.60

QUERY: Try this compound next: CC(C(=O)NCCCCCCNc1c2c(nc3ccccc13)CCCC2)c1ccc(-c2ccc(OCCCO[N+](=O)[O-])cc2)c(F)c1 (stereo not drawn)
RESULT: 8.62

QUERY: Ok, now CC(C(=O)NCCCCCCCCNc1c2c(nc3ccccc13)CCCC2)c1ccc(-c2ccccc2)c(F)c1 (stereo not drawn)
RESULT: 8.68

###

Measured pIC50 on Cholinesterase (Equus caballus) follows.
Give only the number. pIC50 is defined as minus log10 of concentration in molar units.

QUERY: Can you look up the measured pIC50 of CC(C(=O)NCCCCCCCCNc1c2c(nc3ccccc13)CCCC2)c1ccc(-c2ccc(OCCCCCCO[N+](=O)[O-])cc2)c(F)c1 (configuration not stated) for me?
RESULT: 8.82

QUERY: Another: CC(C(=O)NCCCCCCCCNc1c2c(nc3ccccc13)CCCC2)c1ccc(-c2ccc(OCCO[N+](=O)[O-])cc2)c(F)c1 (configuration not stated)
RESULT: 9.00

QUERY: Follow-up item: CC(C(=O)NCCCCCCNc1c2c(nc3ccccc13)CCCC2)c1ccc(-c2ccc(OCCCCO[N+](=O)[O-])cc2)c(F)c1 (configuration not stated)
RESULT: 8.89

QUERY: Subsequent entry: CC(C(=O)NCCCCCCNc1c2c(nc3ccccc13)CCCC2)c1ccc(-c2ccccc2)c(F)c1 (configuration not stated)
RESULT: 8.43

QUERY: // repeat for CC(C(=O)NCCCCCCNc1c2c(nc3ccccc13)CCCC2)c1ccc(-c2ccc(OCCCCCCO[N+](=O)[O-])cc2)c(F)c1 (configuration not stated) and report
RESULT: 9.22

QUERY: Cool, now CC(C(=O)NCCCCCCCCNc1c2c(nc3ccccc13)CCCC2)c1ccc(-c2ccc(OCCCCO[N+](=O)[O-])cc2)c(F)c1 (configuration not stated)
RESULT: 8.89

QUERY: One more molecule: CC(C(=O)NCCCCCCCCNc1c2c(nc3ccccc13)CCCC2)c1ccc(-c2ccc(OCCCO[N+](=O)[O-])cc2)c(F)c1 (configuration not stated)
RESULT: 8.80

###

- STUDY TARGET: Acetylcholinesterase (Electrophorus electricus, UniProt O42275)
- Sequence (O42275 whole entry): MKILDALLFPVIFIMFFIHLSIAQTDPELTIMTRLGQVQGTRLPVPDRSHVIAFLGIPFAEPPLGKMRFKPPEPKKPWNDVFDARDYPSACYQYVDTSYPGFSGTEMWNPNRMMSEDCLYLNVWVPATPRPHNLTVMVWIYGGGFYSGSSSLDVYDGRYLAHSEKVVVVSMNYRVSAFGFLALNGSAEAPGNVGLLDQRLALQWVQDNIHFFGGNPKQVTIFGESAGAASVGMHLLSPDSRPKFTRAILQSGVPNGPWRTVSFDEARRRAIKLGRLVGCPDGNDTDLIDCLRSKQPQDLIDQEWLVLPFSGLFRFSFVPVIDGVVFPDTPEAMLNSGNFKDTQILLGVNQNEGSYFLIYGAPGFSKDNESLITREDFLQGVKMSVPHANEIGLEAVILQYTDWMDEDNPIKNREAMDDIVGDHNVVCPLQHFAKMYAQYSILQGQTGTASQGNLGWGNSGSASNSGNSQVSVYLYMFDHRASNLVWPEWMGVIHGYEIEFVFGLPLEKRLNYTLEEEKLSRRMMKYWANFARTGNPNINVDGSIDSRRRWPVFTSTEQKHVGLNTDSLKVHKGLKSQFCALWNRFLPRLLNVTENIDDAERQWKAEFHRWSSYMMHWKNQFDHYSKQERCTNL
- EXPERIMENTAL DETAILS: Mixed-type inhibition of electric eel AChE by Lineweaver Burk reciprocal plot analysis in presence of acetylcholine
REPORTED PROPERTY: pKi
# pKi is unitless: minus log10 of the molar concentration; print number only

QUERY: What does the record list as pKi for CC(C(=O)NCCCCCCNc1c2c(nc3ccccc13)CCCC2)c1ccc(-c2ccc(OCCO[N+](=O)[O-])cc2)c(F)c1 (stereo unspecified) ?
RESULT: 7.79

###

Measured pIC50 (Acetylcholinesterase (Electrophorus electricus))
Keep it numeric: pIC50 is minus log10 of the concentration in mol/L.

QUERY: Can you share its pIC50? I mean this molecule: CC(C(=O)NCCCCCCNc1c2c(nc3ccccc13)CCCC2)c1ccc(-c2ccc(OCCO[N+](=O)[O-])cc2)c(F)c1 (stereo not given)
RESULT: 8.04

QUERY: Next molecule up: CC(C(=O)NCCCCCCCCNc1c2c(nc3ccccc13)CCCC2)c1ccc(-c2ccc(OCCCO[N+](=O)[O-])cc2)c(F)c1 (stereo not given)
RESULT: 7.51

QUERY: Param item: CC(C(=O)NCCCCCCCCNc1c2c(nc3ccccc13)CCCC2)c1ccc(-c2ccc(OCCCCCCO[N+](=O)[O-])cc2)c(F)c1 (stereo not given)
RESULT: 6.65

QUERY: Repeat with CC(C(=O)NCCCCCCNc1c2c(nc3ccccc13)CCCC2)c1ccc(-c2ccc(OCCCCO[N+](=O)[O-])cc2)c(F)c1 (stereo not given)
RESULT: 7.56

QUERY: Input CC(C(=O)NCCCCCCCCNc1c2c(nc3ccccc13)CCCC2)c1ccc(-c2ccccc2)c(F)c1 (stereo not given)
RESULT: 7.46

QUERY: Query CC(C(=O)NCCCCCCNc1c2c(nc3ccccc13)CCCC2)c1ccc(-c2ccccc2)c(F)c1 (stereo not given) next
RESULT: 7.71

QUERY: Now the molecule CC(C(=O)NCCCCCCNc1c2c(nc3ccccc13)CCCC2)c1ccc(-c2ccc(OCCCO[N+](=O)[O-])cc2)c(F)c1 (stereo not given)
RESULT: 7.73

QUERY: # iterate: CC(C(=O)NCCCCCCNc1c2c(nc3ccccc13)CCCC2)c1ccc(-c2ccc(OCCCCCCO[N+](=O)[O-])cc2)c(F)c1 (stereo not given)
RESULT: 7.51

QUERY: Param item: CC(C(=O)NCCCCCCCCNc1c2c(nc3ccccc13)CCCC2)c1ccc(-c2ccc(OCCO[N+](=O)[O-])cc2)c(F)c1 (stereo not given)
RESULT: 7.90

QUERY: And what about the molecule CC(C(=O)NCCCCCCCCNc1c2c(nc3ccccc13)CCCC2)c1ccc(-c2ccc(OCCCCO[N+](=O)[O-])cc2)c(F)c1 (stereo not given) ?
RESULT: 7.15
